Molecular target: T1, Avi/His-HuIL18BPa (recombinant human IL-18BP isoform A with Avi and poly-His tags) (human, biotinylated with BirA on the Avi tag in some assays)
T1 chain: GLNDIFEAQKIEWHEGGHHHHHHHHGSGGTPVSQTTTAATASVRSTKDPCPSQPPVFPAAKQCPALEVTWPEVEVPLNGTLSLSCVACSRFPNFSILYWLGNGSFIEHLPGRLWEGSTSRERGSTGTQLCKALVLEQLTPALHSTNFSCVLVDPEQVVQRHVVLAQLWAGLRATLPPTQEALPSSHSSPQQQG
Test: cell-based or functional assay
In this section, each of the binders is paired with its reported EC50 of IFNγ release, human PBMCs.
# unit: nM | format: bare number

BINDER | EC50 of IFNγ release, human PBMCs / nM
anti-IL-18BP antibody variant BP-04.04 (antibody, V domains shown) VH: QVQLVQSGAEVKKPGASVKVSCKASGYTFTDYDMHWVRQAPGQGLEWMGIISTYYGDVSYAQKKQGRVTMTRDKSTSTVYMELSSLRSEDTAVYYCARSGTYNYGTRESHPLDYWGQGTLVTVSS VL: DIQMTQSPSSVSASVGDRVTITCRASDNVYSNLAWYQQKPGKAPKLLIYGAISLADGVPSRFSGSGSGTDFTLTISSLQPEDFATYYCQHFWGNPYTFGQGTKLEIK | 18.6

Turning to the following binder.
Please give the measured EC50 of IFNγ release, human PBMCs for this binder: anti-IL-18BP antibody variant BP-04.07 (antibody, V domains shown) VH: QVQLVQSGAEVKKPGASVKVSCKASGYTFTDYDMHWVRQAPGQGLEWMGIISTYYGVVSYAQKKQGRVTMTRDKSTSTVYMELSSLRSEDTAVYYCARSGTYNYGTRESHALDYWGQGTLVTVSS VL: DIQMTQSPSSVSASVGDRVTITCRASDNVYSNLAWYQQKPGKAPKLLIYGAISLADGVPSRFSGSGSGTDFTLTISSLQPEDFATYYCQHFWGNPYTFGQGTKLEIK
4.3
